# System: MS2 coat protein
# Experimental Details: apparent KD of MS2 coat protein; higher = weaker reporter binding
# Test Context: Eterna round: R107; input ligand: theophylline 20 uM
Record 1.0 whenever apparent KD of MS2 coat protein is at 100 nM or higher; record 0.0 when lower.

Query Sequence	Group
GCAUCCUAGUCGGCCGCCACUACAACAUGAGGAUCACCCAUGUGUGGGAGAUCCGUCCUACGAAGUAGGACCGGGACUAGGAUGC [(T1)-(M1)-(M2)-(T)''-(M)'-(T)'-(T2)_Design5_2/18/17]	1.0
AAUGUGAUAGUCGUACUCUCACACUGAGAAGGAGCGCGAAAGUUCGCAGGUAGGUCGCUCAGUUAUACAUGAGGAUCACCCAUGU [Edgeised]	0.0
AGUGGGUGUUAUGAUACCAGCGUAAUACACAACAUGAGGAUCACCCAUGUGGAGCCUCGCCGCCCUUGGCAGCAUUGGGCCCGCA [theeternabot_sameState_MS2_Theo_B_4]	1.0

QUERY: # bool: apparent KD of MS2 coat protein of AGACUGUCUUCGGACAGUCCGGACAGCCCGCGAGGACCGGUACGGCCGCCACUCGCACGAGGAUCACCCGUGUGAGGCUGUCCGA [Omei Tryp A Exc A v2] >= 100 nM
RESULT: 0.0

QUERY: Reported apparent KD of MS2 coat protein at or above 100 nM? AUUUUCAUGGUCAUAUAUAUAUCUUCAGAUACCAGACUAUAUUAAGUCCCUUGGCAGCUGUUACAUGAGGAUCACCCAUGUUAUA [JR_ExcTheophyA_Sub013]
RESULT: 0.0

QUERY: Is apparent KD of MS2 coat protein for AGACAUGAGGAUCACCCAUGUAGCAUGGAUACCAGAUGUAGAUUAGUCCCUUGGCAGCUGUGGUAAAGUGAUGCAUUGCUCCUAG [Exclusion - Theophylline A (Freestyle 3)] at or above 100 nM?
RESULT: 0.0

QUERY: Threshold query (apparent KD of MS2 coat protein >= 100 nM) on AGAAUAUAGUCGGCCGCCACUCUUCAUACAUGAGGAUCACCCAUGUUUAAUUCUUGGAUAUUCUUGAGGACCGGGACAUAGGCAU [JR_SSTryptoB_Sub019]
RESULT: 0.0

QUERY: Decide: is the reported value of apparent KD of MS2 coat protein for AAUAUUAACUGAAGGAGCGUGUUAUGUACAUGAGGAUCACCCAUGUAUAGGGUAAUACUAACACAGGUAGGUCGCAGAAUAAUUA [JR_SSArginiB_Sub010] equal to or greater than 100 nM?
RESULT: 0.0

QUERY: Given the entry AGUGACUACAUCUGGAAUUAAGGUAGGGAAGGAGCGCGGUAAGACGCAGGUAGGUCGCCCUACAUGAGGAUCACCCAUGUGAUGU [XARG-A 28] , answer whether its apparent KD of MS2 coat protein meets or surpasses 100 nM.
RESULT: 1.0

QUERY: Given the entry GACAUUAUCUGAAGGAGCGAGGUAAAUAGGGAUGAGCAUACAUGAGGAUCACCCAUGUGGCCUCAGGUAGGUCGCAGAUGAGAUU [Exclusion Arginine B GF26] , answer whether its apparent KD of MS2 coat protein meets or surpasses 100 nM.
RESULT: 1.0

QUERY: Entry UUAUCUAUAUUCGAUACCAGUACCCUGGCCGCAAAUCCUAACAUGAGGAUCACCCAUGUGUACCCUUGGCAGCGGGUAUGGGUUU [XTheo B #29] : is its apparent KD of MS2 coat protein no less than 100 nM?
RESULT: 0.0

QUERY: Hello, I need to know if CCGGCAUGUCGAAGGAGCGUCACAUGAGGAUCACCCAUGUACAUGAGGAUCACCCAUGUGUGACAGGUAGGUCGCGGCGGCCAGG [Exclusion Arginine B GF7] has measured apparent KD of MS2 coat protein not below 100 nM. Thanks!
RESULT: 1.0

QUERY: Exam item: decide whether the reported apparent KD of MS2 coat protein for UGUUUGGUGCGCGAGUGUUGGAUAAUUGAUACCAGUGUAGAAGUGCGCCCUUGGCAGCGAAUCCUAACAUGAGGAUCACCCAUGU [5.X] is at least 100 nM.
RESULT: 0.0

QUERY: In plain terms: is recorded apparent KD of MS2 coat protein at least 100 nM for AAUCCAAGAAAUGAUACCAGUCCCACUCAGGACAUGAGGAUCACCCAUGUAAUACAGGGAGACCCUUGGCAGCAUCGAAUAAACA [theeternabot_sameState_MS2_Theo_B_33] ?
RESULT: 1.0

Attribution: the supplement of paper PMC9170038
